system: PC-3; test: Antiproliferative activity against human PC3 cells measured after 24 hrs by MTT assay; format: functional, cell-based; details: PC-3, 24 h
REPORTED_ENDPOINT: IC50 (µM)

1) C/C1=C/C2=C(C(=O)[C@H](C)C2)C(=O)[C@@H](C)C[C@@H]2[C@H](CC1)[C@@]2(C)CO[C@@H]1O[C@H](CO)[C@@H](O)[C@H](O)[C@H]1O; 25

====

tested on: MCF7; assay: Antiproliferative activity against human MCF7 cells measured after 24 hrs by MTT assay; format: functional, cell-based; details: MCF7, 24 h
REPORTED_ENDPOINT: IC50

1) C/C1=C/C2=C(C(=O)[C@H](C)C2)C(=O)[C@@H](C)C[C@@H]2[C@H](CC1)[C@@]2(C)CO[C@@H]1O[C@H](CO)[C@@H](O)[C@H](O)[C@H]1O; 32 µM

Recorded values, source ChEMBL document CHEMBL4041487.
